targetDesc: His-TEV-DYRK1A Kinase domain (aa127-485) (Homo sapiens, UniProt Q13627)
Construct: His-TEV-DYRK1A Kinase domain (aa127-485); His (N); TEV cleavage site (N)
testDetails: Kinase ADP assay (ADP Hunter Plus)
Type: biochemical
Below is a list of entries, each paired with its recorded IC50 value.
endpointName: IC50 (µM)

[
  {
    "compound": "Cc1nc(OCC2CCCC2)c2c(-c3ccncc3)c[nH]c2n1 [Example 15]",
    "targetDesc": "His-TEV-DYRK1A Kinase domain (aa127-485) (Homo sapiens, UniProt Q13627)",
    "endpointValue": 0.032
  },
  {
    "compound": "Cc1nc(OCc2cccs2)c2c(-c3ccnc(N)c3)c[nH]c2n1 [Example 19]",
    "targetDesc": "His-TEV-DYRK1A Kinase domain (aa127-485) (Homo sapiens, UniProt Q13627)",
    "endpointValue": 0.025
  },
  {
    "compound": "Cc1nc(-c2cc3cccc(Cl)c3s2)c2c(-c3ccnc(N)c3)c[nH]c2n1 [Example 185]",
    "targetDesc": "His-TEV-DYRK1A Kinase domain (aa127-485) (Homo sapiens, UniProt Q13627)",
    "endpointValue": 0.011
  },
  {
    "compound": "Cc1nc(NCc2c(C)cccc2Cl)c2c(-c3ccnc(N)c3)c[nH]c2n1 [Example 58]",
    "targetDesc": "His-TEV-DYRK1A Kinase domain (aa127-485) (Homo sapiens, UniProt Q13627)",
    "endpointValue": 0.01
  },
  {
    "compound": "Nc1cc(-c2c[nH]c3nc(C#CC4CC4)nc(NCc4c(F)cccc4F)c23)ccn1 [Example 152]",
    "targetDesc": "His-TEV-DYRK1A Kinase domain (aa127-485) (Homo sapiens, UniProt Q13627)",
    "endpointValue": 0.012
  },
  {
    "compound": "Cc1nc(OCc2cc(-c3ccc(F)cc3)on2)c2c(-c3ccnc(N)c3)c[nH]c2n1 [Example 24]",
    "targetDesc": "His-TEV-DYRK1A Kinase domain (aa127-485) (Homo sapiens, UniProt Q13627)",
    "endpointValue": 0.066
  },
  {
    "compound": "Cc1nc(N2CCOC(C)C2)c2c(-c3cc(N)nc(N)c3)c[nH]c2n1 (centres unmarked) [Example 143]",
    "targetDesc": "His-TEV-DYRK1A Kinase domain (aa127-485) (Homo sapiens, UniProt Q13627)",
    "endpointValue": 1.06
  },
  {
    "compound": "Cc1nc(N[C@@H]2CCc3ccccc32)c2c(-c3ccnc(N)c3)c[nH]c2n1 [Example 76]",
    "targetDesc": "His-TEV-DYRK1A Kinase domain (aa127-485) (Homo sapiens, UniProt Q13627)",
    "endpointValue": 0.01
  },
  {
    "compound": "N#Cc1nc(-c2ccc3c(c2)OCO3)c2c(-c3cc(N)nc(N)c3)c[nH]c2n1 [Example 158]",
    "targetDesc": "His-TEV-DYRK1A Kinase domain (aa127-485) (Homo sapiens, UniProt Q13627)",
    "endpointValue": 0.15
  },
  {
    "compound": "Cc1nc(OCc2cccnc2)c2c(-c3ccnc(N)c3)c[nH]c2n1 [Example 22]",
    "targetDesc": "His-TEV-DYRK1A Kinase domain (aa127-485) (Homo sapiens, UniProt Q13627)",
    "endpointValue": 0.018
  },
  {
    "compound": "COC1CCN(c2nc(C)nc3[nH]cc(-c4ccnc(N)c4)c23)CC1 [Example 133]",
    "targetDesc": "His-TEV-DYRK1A Kinase domain (aa127-485) (Homo sapiens, UniProt Q13627)",
    "endpointValue": 0.269
  },
  {
    "compound": "Nc1cc(-c2c[nH]c3nc(C#CC4CC4)cc(-c4ccc5c(c4)OCCO5)c23)ccn1 [Example 215]",
    "targetDesc": "His-TEV-DYRK1A Kinase domain (aa127-485) (Homo sapiens, UniProt Q13627)",
    "endpointValue": 0.019
  },
  {
    "compound": "C#Cc1cc(-c2ccc3c(c2)OCO3)c2c(-c3ccnc(N)c3)c[nH]c2n1 [Example 220]",
    "targetDesc": "His-TEV-DYRK1A Kinase domain (aa127-485) (Homo sapiens, UniProt Q13627)",
    "endpointValue": 0.034
  },
  {
    "compound": "Cc1nc(NCc2cccc(Cl)c2Cl)c2c(-c3ccnc(N)c3)c[nH]c2n1 [Example 81]",
    "targetDesc": "His-TEV-DYRK1A Kinase domain (aa127-485) (Homo sapiens, UniProt Q13627)",
    "endpointValue": 0.014
  },
  {
    "compound": "Nc1cc(-c2c[nH]c3nc(C#CC4CC4)nc(-c4ccc5c(c4)OCO5)c23)ccn1 [Example 153]",
    "targetDesc": "His-TEV-DYRK1A Kinase domain (aa127-485) (Homo sapiens, UniProt Q13627)",
    "endpointValue": 0.011
  },
  {
    "compound": "Cc1nc(N[C@@H](C)c2ccccc2)c2c(-c3ccnc(N)c3)c[nH]c2n1 [Example 67]",
    "targetDesc": "His-TEV-DYRK1A Kinase domain (aa127-485) (Homo sapiens, UniProt Q13627)",
    "endpointValue": 0.094
  },
  {
    "compound": "COc1cccc(C(F)(F)F)c1CNc1nc(C)nc2[nH]cc(-c3ccnc(C)c3)c12 [Example 146]",
    "targetDesc": "His-TEV-DYRK1A Kinase domain (aa127-485) (Homo sapiens, UniProt Q13627)",
    "endpointValue": 0.172
  }
]
